Where do these numbers come from? They come from ChEMBL document CHEMBL1681717.

Biological target: Mitogen-activated protein kinase 8 (Homo sapiens, UniProt P45983)
Sequence (P45983 whole entry): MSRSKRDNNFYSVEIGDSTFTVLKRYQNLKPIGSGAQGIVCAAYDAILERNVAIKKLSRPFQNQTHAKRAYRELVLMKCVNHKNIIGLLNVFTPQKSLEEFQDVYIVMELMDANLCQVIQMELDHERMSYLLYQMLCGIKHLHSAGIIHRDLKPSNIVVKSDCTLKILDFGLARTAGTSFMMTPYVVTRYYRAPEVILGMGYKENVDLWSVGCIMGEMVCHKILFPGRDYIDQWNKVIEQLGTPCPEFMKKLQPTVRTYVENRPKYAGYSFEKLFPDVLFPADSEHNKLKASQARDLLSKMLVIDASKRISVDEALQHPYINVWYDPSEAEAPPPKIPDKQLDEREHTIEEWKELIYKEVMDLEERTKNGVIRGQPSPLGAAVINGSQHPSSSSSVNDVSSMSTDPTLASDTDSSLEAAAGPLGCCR
Assay: Inhibition of recombinant JNK1 after 60 mins by TR-FRET assay
reported.metric: IC50 (nM)

The examples below pair each entry with its known result.
COC(=O)c1c(C)csc1NC(=O)Cc1cccc2nccnc12 | 95
COC(=O)c1c(C)csc1NC(=O)CN1C(=O)CCc2ccccc21 | 78
O=C(CN1C(=O)CCc2ccccc21)Nc1scc(Br)c1-c1ncn[nH]1 | 25
COc1ccc(CC(=O)Nc2scc(C)c2-c2nc(C)n[nH]2)cc1 | 331
N#Cc1csc(NC(=O)Cc2cccc3cnccc23)c1-c1ncn[nH]1 | 11
CCc1csc(NC(=O)Cc2ccc(OC)cc2)c1C(=O)OC | 19300
N#Cc1csc(NC(=O)Cc2cccc3ncccc23)c1-c1nnc[nH]1 | 12
COC(=O)c1c(C)csc1NC(=O)Cc1ccc(OCCCN2CCCCC2)cc1 | 295

[I] COC(=O)c1c(C)csc1NC(=O)Cc1ccc(OCCCn2ccnc2)cc1
[II] C#Cc1csc(NC(=O)Cc2ccc(OC)cc2)c1C(=O)OCC
Challenge: Could you kindly indicate whether I or II has the higher IC50 value? # respond with the chosen item's label
Response given: II
(II: 1050 nM, I: 597 nM)

[P] COC(=O)c1c(C)csc1NC(=O)Cc1ccc(-c2ccncc2)cc1
[Q] N#Cc1csc(NC(=O)CN2C(=O)CCc3ccccc32)c1-c1ncn[nH]1
[R] O=C(Cc1cccc2cnccc12)Nc1scc(Cl)c1-c1ncn[nH]1
Challenge: # sort list by recorded IC50, greatest to least To answer, write out the labels according to the requested order.
Response given: P, R, Q

[A] O=C(Cc1cccc2cnccc12)Nc1scc(Br)c1-c1ncn[nH]1
[B] CCOC(=O)c1c(C2CC2)csc1NC(=O)Cc1ccc(OC)cc1
[C] COC(=O)c1c(C)csc1NC(=O)Cc1ccc(OC)cc1
Challenge: Order the records by IC50, with each subsequent value no larger than the one before. Would you mind listing the labels in the order requested?
Response given: B, C, A

[A] Cc1n[nH]c(-c2c(C)csc2NC(=O)Cc2cccc3ncccc23)n1
[B] Cc1n[nH]c(-c2c(C)csc2NC(=O)Cc2cccc3nccnc23)n1
Challenge: Form: Entry with minimum IC50 (choose one): A / B Could you answer with the label of the item you picked?
Response given: A
(A: 45 nM, B: 298 nM)

----------
Assay: Oxidative metabolic stability in mouse liver microsomes assessed as compound remaining at 5 uM after 120 mins
Assay type: ADME, Microsome
Details: read-out: Stability
reported.metric: remaining at 2 h, 5 µM (%)

Worked set:
N#Cc1csc(NC(=O)CN2C(=O)CCc3ccccc32)c1-c1ncn[nH]1 | 37
Cc1csc(NC(=O)CN2C(=O)CCc3ccccc32)c1-c1ncn[nH]1 | 0

[A] Cc1csc(NC(=O)Cc2cccc3ncccc23)c1-c1ncn[nH]1
[B] O=C(Cc1cccc2cnccc12)Nc1scc(Cl)c1-c1ncn[nH]1
[C] N#Cc1csc(NC(=O)Cc2cccc3cnccc23)c1-c1ncn[nH]1
[D] O=C(CN1C(=O)CCc2ccccc21)Nc1scc(Cl)c1-c1ncn[nH]1
Challenge: Order field: remaining at 2 h, 5 µM | Direction: descending (largest first) # list labels per requested ordering
Response given: C, B, A, D
(C: 48%, B: 29%, A: 1%, D: 0%)

----------
Assay: Solubility of the compound in hank's buffered salt solution
Type: physicochemical
reported.metric: solubility (µM)
Return type: number; implicit unit µM.

Challenge: Given the compound COC(=O)c1sccc1NC(=O)Cc1cccs1 , what is its reported solubility?
Response given: 72
